# Assay overview: xn = mol fraction of the nth substance listed, in the solute-free solvent
# Cond: 283.15 K; x2 = 0.1
Property name: solubility (g/100 g solution)

Task: I would be grateful if you could share the reported solubility (g/100 g solution) for Cc1c(Br)c(=O)n(C2CCCC2)c2nc(Cl)ncc12 + CC1=CC(=O)CC(C)(C)C1 + CC(C)O .
Result: 0.147

[1] Cl.N=C(N)NC(=N)N1CCOCC1 + O + CC(C)O
[2] Cc1c(Br)c(=O)n(C2CCCC2)c2nc(Cl)ncc12 + CCOC(C)=O + CCO
[3] O=C(NC(C(=O)O)c1ccccc1)OCc1ccccc1 (configuration not stated) + CCO + O
[4] COC(=O)C(N)CS.Cl (configuration not stated) + CCO + ClCCl
Task: Put the items in sequence by solubility (g/100 g solution), from largest down. Return the labels ranked in the requested order, please.
Result: 4, 1, 2, 3
